biological target: T1, recombinant hSIRPg-His (Sino Biologicals, reference 11828-H08H) (human, UniProt Q9P1W8 29-360); assay: BLI (Blitz); SIRPg-His on Ni-NTA biosensor, antibody at 10 ug/ml or 20 ug/ml (Example 9) [B, table A]
T1 construct: also called human SIRPg-His; not shown: His tag
T1 sequence (Q9P1W8 29-360 limits assumed): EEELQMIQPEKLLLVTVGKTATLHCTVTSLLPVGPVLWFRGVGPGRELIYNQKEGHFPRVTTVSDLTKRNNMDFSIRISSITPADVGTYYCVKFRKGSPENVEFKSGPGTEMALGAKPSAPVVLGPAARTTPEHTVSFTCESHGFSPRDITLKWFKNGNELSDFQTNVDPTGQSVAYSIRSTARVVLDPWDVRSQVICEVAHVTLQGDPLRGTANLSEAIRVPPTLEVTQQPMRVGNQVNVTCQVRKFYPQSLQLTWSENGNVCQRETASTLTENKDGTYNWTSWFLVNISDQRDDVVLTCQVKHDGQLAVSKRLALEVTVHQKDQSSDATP
koff vs 0.007 s⁻¹: less than gives 1; not less than gives 0.

binder: HEFLA (antibody, human IgG4 S228P, kappa, V domains shown, humanized 18D5 variant) VH: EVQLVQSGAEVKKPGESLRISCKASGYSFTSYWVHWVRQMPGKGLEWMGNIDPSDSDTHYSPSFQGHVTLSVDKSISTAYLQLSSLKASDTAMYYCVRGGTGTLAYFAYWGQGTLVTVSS VL: DVVMTQSPLSLPVTLGQPASISCRSSQSLVHSYGNTYLYWYQQRPGQSPRLLIYRVSNRFSGVPDRFSGSGSGTDFTLKISRVEAEDVGVYFCFQGTHVPYTFGGGTKVEIKR
groupLabel: 0
//
binder: Kwar23 (antibody, V domains shown) VH: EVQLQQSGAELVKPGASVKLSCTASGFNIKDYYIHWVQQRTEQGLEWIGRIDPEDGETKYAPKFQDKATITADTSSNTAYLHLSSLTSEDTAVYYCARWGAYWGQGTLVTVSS VL: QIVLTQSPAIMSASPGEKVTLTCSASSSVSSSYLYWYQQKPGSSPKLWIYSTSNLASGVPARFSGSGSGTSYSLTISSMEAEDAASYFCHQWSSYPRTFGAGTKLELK
groupLabel: 1
//
binder: HFLB (antibody, human IgG4 S228P, kappa, V domains shown, humanized 18D5 variant) VH: EVQLVQSGAEVKKPGESLRISCKASGYSFTSYWVHWVRQMPGKGLEWMGNIDPSDSDTHYSPSFQGHVTLSVDKSISTAYLQLSSLKASDTAMYYCVRGGTGTMAYFAYWGQGTLVTVSS VL: DVVMTQSPLSLPVTLGQPASISCRSSQSLVHSYGNTYLYWFQQRPGQSPRLLIYRVSNRFSGVPDRFSGSGSGTDFTLKISRVEAEDVGVYYCFQGTHVPYTFGGGTKVEIKR
groupLabel: 0
//
binder: HFLA (antibody, human IgG4 S228P, kappa, V domains shown, humanized 18D5 variant) VH: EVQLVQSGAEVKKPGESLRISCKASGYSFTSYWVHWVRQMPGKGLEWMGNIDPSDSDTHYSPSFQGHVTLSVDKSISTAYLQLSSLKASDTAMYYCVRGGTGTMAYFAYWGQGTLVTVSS VL: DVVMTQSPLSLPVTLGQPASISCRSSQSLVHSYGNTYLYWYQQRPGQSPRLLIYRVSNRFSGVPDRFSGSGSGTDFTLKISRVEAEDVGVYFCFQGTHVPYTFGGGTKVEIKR
groupLabel: 0

Sourced from patent US20210179728A1
